Biological target: UniProt Q7K6A5
Sequence (whole entry): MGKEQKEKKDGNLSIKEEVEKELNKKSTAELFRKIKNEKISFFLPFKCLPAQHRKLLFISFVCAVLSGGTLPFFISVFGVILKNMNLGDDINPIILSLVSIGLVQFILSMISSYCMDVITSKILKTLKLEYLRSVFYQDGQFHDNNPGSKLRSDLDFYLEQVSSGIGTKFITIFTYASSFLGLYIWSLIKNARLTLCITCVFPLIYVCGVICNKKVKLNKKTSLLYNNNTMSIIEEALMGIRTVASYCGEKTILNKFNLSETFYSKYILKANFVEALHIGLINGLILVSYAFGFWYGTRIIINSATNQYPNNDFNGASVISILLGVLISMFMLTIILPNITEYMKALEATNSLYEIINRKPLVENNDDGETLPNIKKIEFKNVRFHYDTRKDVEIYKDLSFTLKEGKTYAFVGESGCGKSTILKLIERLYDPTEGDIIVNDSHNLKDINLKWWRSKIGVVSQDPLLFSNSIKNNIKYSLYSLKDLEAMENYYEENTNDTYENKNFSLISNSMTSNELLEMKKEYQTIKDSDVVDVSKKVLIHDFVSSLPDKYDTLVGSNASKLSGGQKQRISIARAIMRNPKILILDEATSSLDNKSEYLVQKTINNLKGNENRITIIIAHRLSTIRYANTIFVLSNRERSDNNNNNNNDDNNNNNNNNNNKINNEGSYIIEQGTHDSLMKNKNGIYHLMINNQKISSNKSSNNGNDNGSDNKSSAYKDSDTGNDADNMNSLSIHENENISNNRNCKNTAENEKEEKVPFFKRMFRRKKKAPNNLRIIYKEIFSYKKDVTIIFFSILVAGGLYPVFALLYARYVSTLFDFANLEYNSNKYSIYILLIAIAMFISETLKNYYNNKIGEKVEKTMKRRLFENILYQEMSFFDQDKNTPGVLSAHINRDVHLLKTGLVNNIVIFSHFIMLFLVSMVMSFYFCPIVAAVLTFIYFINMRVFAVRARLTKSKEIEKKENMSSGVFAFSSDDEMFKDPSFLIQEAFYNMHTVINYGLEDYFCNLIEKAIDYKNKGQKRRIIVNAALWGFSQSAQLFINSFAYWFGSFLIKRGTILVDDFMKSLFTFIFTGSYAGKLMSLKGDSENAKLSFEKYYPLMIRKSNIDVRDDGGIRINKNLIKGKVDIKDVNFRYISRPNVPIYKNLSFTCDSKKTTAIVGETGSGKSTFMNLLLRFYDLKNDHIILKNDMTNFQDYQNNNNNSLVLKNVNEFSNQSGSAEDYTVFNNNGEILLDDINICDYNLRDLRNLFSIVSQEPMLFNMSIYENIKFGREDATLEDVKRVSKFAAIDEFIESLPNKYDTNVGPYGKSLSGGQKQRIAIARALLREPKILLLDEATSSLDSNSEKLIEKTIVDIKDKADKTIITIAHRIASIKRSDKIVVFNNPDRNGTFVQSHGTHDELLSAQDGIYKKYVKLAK
Assay: IC50 for competition of protein binding to Kinobeads;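 note: native unpurified kinases from lysate captured on beads bearing immobilized kinase inhibitors, with bead-bound kinases quantified by mass spectrometry across compound doses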
Conditions: assay detail: Kinobeads competition in P. falciparum blood-stage lysate
Measured Metric: IC50

Looking up O=c1[nH]c2ccc(Cl)cc2c(NC2CN3CCC2CC3)c1-c1nc2ccccc2[nH]1 (stereo unspecified) , I see its IC50 listed as > 20 µM

* * *

Molecular target: UniProt Q8IKU0
Sequence (Q8IKU0 whole entry): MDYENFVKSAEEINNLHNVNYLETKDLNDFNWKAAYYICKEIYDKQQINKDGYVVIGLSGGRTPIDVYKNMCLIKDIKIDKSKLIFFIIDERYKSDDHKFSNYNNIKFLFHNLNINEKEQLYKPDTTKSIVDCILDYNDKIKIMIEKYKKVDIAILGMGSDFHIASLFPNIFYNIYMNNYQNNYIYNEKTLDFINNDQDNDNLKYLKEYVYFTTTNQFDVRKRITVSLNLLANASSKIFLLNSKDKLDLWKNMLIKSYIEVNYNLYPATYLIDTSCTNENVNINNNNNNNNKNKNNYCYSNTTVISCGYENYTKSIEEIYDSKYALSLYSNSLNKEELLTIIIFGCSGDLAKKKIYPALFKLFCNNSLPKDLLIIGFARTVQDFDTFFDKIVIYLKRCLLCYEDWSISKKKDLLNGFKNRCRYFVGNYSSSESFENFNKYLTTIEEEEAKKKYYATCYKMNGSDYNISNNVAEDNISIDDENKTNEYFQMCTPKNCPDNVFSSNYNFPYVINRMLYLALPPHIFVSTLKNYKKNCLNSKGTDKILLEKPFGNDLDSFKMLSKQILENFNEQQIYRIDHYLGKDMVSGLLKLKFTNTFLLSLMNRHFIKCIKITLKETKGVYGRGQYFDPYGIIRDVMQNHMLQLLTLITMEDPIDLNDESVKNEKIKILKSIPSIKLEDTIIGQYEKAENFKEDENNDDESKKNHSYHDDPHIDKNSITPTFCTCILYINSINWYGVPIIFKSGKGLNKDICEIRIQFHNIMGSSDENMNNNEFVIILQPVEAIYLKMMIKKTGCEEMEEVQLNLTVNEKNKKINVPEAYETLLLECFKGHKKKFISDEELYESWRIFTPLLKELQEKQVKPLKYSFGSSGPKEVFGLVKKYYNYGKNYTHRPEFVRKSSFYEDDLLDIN
Assay: IC50 for competition of protein binding to Kinobeads
Settings: assay detail: Kinobeads competition in P. falciparum blood-stage lysate
pIC50: −log10 of the molar value.
Measured Metric: pIC50

pIC50 recorded for this molecule, O=c1[nH]c2ccc(Cl)cc2c(NC2CN3CCC2CC3)c1-c1nc2ccccc2[nH]1 (stereo unspecified) , is < 4.70
